# ASSAY: Physicochemical property was determined
# Type: ADME
VALUE_TYPE: pKa

>>> result("O=c1[nH]nc(CN2CCO[C@H](OCc3cc(C(F)(F)F)cc(C(F)(F)F)c3)[C@@H]2c2ccccc2)[nH]1")
"< 3"

====

# ASSAY_TARGET: Neuromedin-K receptor (Homo sapiens)
# Sequence (P29371 whole entry): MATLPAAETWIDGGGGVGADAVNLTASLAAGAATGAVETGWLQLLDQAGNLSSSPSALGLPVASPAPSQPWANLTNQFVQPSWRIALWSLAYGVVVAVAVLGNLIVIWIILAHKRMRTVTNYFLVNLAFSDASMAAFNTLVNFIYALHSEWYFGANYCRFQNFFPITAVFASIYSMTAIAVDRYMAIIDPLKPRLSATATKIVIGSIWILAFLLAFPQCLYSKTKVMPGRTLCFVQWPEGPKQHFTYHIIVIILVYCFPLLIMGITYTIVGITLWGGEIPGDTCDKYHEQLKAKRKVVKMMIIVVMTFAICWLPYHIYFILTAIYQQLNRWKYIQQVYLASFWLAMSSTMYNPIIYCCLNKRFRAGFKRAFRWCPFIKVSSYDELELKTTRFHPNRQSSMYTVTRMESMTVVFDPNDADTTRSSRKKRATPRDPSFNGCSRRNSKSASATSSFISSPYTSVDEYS
# ASSAY: Displacement of [125I]-labeled SP from the human Tachykinin receptor 3 expressed in CHO cells
VALUE_TYPE: IC50 (µM)

>>> result("O=c1[nH]nc(CN2CCO[C@H](OCc3cc(C(F)(F)F)cc(C(F)(F)F)c3)[C@@H]2c2ccccc2)[nH]1")
0.15
